- Tested on: Plasmodium berghei
- Assay Explanation: Screen against P. berghei liver stage (PbLuc), transformed with Luciferase, at 10uM
- Format: functional, HepG2
- Measurement Conditions: tested at 10 uM
In all, about 69,000 compounds went through this assay and about 8,600 (12%) showed an effect of 50% or more. The sample holds strong results, similar compounds and a random draw of the others, so the mix is not that of the screen.
Where INHIBITION equals or exceeds 40%, the correct label is TRUE; where it does not, the label is FALSE.

Reference set (4 entries):
>>> label_class("CNC(=O)[C@H]1C[C@@H]2CN(C(=O)c3ccoc3)C[C@@H]2N1S(C)(=O)=O")
"FALSE"
>>> label_class("CCN(C(=O)COC)C(c1ccc(Cl)cc1)c1ccccn1 (centres undefined)")
"TRUE"
>>> label_class("CC(CN1CCC2(CC1)N=C(c1cccnc1)NC2=O)c1ccccc1 (centres undefined)")
"TRUE"
>>> label_class("CN(Cc1cccnc1)C1CCCN(Cc2noc(C3CC3)n2)C1 (centres undefined)")
"TRUE"

Exercise: Threshold query (INHIBITION >= 40%) on COC[C@]12COC[C@H]1CN(Cc1cc(OC)cc(OC)c1)C2
Solution: FALSE
